Molecular target: CD45 (Homo sapiens)
Construct: incubating the cytosolic portion of CD45 with the compounds and p-nitrophenyl phosphate (pNPP); purchased BIOMOL (Plymouth Meeting, Pa.)
Sequence (P08575 599-1306 limits assumed): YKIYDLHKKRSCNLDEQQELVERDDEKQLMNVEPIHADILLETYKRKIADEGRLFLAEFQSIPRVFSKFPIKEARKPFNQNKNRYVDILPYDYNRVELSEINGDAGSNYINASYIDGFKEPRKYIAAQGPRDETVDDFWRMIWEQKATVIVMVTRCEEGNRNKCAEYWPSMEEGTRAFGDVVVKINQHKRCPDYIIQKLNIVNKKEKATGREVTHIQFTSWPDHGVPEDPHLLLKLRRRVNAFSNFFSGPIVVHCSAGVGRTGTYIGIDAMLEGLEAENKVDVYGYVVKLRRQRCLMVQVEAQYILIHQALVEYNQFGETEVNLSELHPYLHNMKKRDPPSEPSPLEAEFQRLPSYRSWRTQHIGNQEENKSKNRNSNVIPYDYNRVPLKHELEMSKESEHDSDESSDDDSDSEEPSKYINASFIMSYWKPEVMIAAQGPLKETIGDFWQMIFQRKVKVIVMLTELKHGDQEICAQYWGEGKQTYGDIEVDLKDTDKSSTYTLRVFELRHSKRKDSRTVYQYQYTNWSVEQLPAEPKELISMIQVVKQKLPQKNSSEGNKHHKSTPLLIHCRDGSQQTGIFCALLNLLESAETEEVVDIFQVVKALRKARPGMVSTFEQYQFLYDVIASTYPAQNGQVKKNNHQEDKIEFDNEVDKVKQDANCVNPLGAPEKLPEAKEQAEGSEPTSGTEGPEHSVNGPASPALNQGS
Assay: Phosphatase assay using pNPP as substrate
Type: biochemical
Conditions: pH 7; read-out: pNPP IC50
Where a SMILES comes first, the peptide text is derived from it. The star is where a group is joined. Phenanthrenequinone2carbonyl = O=C1C(=O)c2cc(C(=O)*)ccc2-c2ccccc21; 3Phenanthroyl(9,10-dioxo) = O=C1C(=O)c2ccc(C(=O)*)cc2-c2ccccc21; X1 = O=C1C(=O)c2cc(N*)ccc2-c2ccccc21
measurement-name: IC50 (µM)
Field: numeric (µM). Do not append units.

Below are worked cases with known answers.
{"compound": "NC(=O)CC[C@H](NC(=O)CNC(=O)c1ccc2c(c1)-c1ccccc1C(=O)C2=O)C(=O)NCC(=O)N[C@@H](CCC(N)=O)C(=O)N1CCC[C@H]1C(=O)O [Example 29] ({3Phenanthroyl(9,10-dioxo)}-GQGQP-OH)", "reported-result": 1.1}
{"compound": "NC(=O)CC[C@H](NC(=O)[C@@H]1CCCN1C(=O)[C@H](CCC(N)=O)NC(=O)[C@H](CCC(=O)O)NC(=O)c1ccc2c(c1)-c1ccccc1C(=O)C2=O)C(=O)N1CCC[C@H]1C(=O)O [Example 24] ({3Phenanthroyl(9,10-dioxo)}-EQPQP-OH)", "reported-result": 0.6}
{"compound": "O=C(O)CC[C@H](NC(=O)[C@@H]1CCCN1C(=O)[C@H](CCC(=O)O)NC(=O)CNC(=O)c1ccc2c(c1)C(=O)C(=O)c1ccccc1-2)C(=O)NCC(=O)O [Example 43] (Phenanthrenequinone2carbonyl-GEPEG-OH)", "reported-result": 1.9}

Query: Read the entry CC(=O)N[C@H](C(=O)N[C@@H](C)C(=O)N[C@H](C(=O)N[C@@H](CCC(=O)O)C(=O)NCC(=O)N[C@@H](CCC(N)=O)C(=O)N[C@@H](CC(=O)Nc1ccc2c(c1)C(=O)C(=O)c1ccccc1-2)C(=O)O)[C@@H](C)O)[C@@H](C)O [Example 61] (Ac-TATEGQD(X1)-OH) and write its reported IC50.
Response: 1.8

Query: Indicate the recorded IC50 value for this compound: N=C(N)NCCC[C@H](NC(=O)[C@@H]1CCCN1C(=O)[C@H](CCCNC(=N)N)NC(=O)[C@H](CCC(=O)O)NC(=O)c1ccc2c(c1)C(=O)C(=O)c1ccccc1-2)C(=O)NCC(=O)O [Example 56] (Phenanthrenequinone2carbonyl-ERPRG-OH)
Response: 0.8

Query: Give me measured IC50, please, for this compound: NC(=O)CC[C@H](NC(=O)[C@@H]1CCCN1C(=O)[C@H](CCC(N)=O)NC(=O)CNC(=O)c1ccc2c(c1)-c1ccccc1C(=O)C2=O)C(=O)N1CCC[C@H]1C(=O)O [Example 25] ({3Phenanthroyl(9,10-dioxo)}-GQPQP-OH)
Response: 1.2

Query: Provide measured IC50 value, entry: NC(=O)CC[C@H](NC(=O)c1ccc2c(c1)-c1ccccc1C(=O)C2=O)C(=O)N[C@@H](CCC(=O)O)C(=O)N1CCC[C@H]1C(=O)N[C@@H](CCC(N)=O)C(=O)N1CCC[C@H]1C(=O)O [Example 28] ({3Phenanthroyl(9,10-dioxo)}-QEPQP-OH)
Response: 1.1

Query: Check the records and state IC50 for N=C(N)NCCC[C@H](NC(=O)CNC(=O)c1ccc2c(c1)C(=O)C(=O)c1ccccc1-2)C(=O)N1CCC[C@H]1C(=O)N[C@@H](CCC(=O)O)C(=O)NCC(=O)O [Example 46] (Phenanthrenequinone2carbonyl-GRPEG-OH)
Response: 1

Origin of values: patent US20030207812A1
